TEST_SUMMARY: Microsomal stability CLint (M)
CONDITION_SUMMARY: mouse, microsomes
EXPERIMENTAL_ENDPOINT: microsomal CLint (µL/min/mg)
Enter your answer as a number in µL/min/mg; do not include the unit.

For CCc1nc2ccc(Cl)cn2c1C(=O)NCc1ccc(N2CCN(S(=O)(=O)C(F)(F)F)C=N2)cc1 [Compound 1] the compound record lists microsomal CLint as 21.5

# microsomal CLint of CCc1nc2ccc(Cl)cn2c1C(=O)NCc1ccc(N2CCN(S(=O)(=O)C(F)(F)F)C=N2)c(F)c1 [Compound 9] = 41

Please fill in: microsomal CLint reported for CCc1nc2ccc(Cl)cn2c1C(=O)NCc1ccc(N2CCN(S(=O)(=O)C(F)(F)F)C=N2)cc1F [Compound 16] = 18

Looking up CCc1nc2ncc(Cl)cn2c1C(=O)NCc1ccc(N2CCN(S(=O)(=O)C(F)(F)F)C=N2)cc1 [Compound 13] , I see its microsomal CLint listed as 13.3

* * *

Give IC50 for every item shown.
Test system: Mycobacterium tuberculosis strain EH4.0 expressing green-fluorescent protein (GFP)
TEST_SUMMARY: microbe, parasite or virus in culture
Assay type: cell-based
CONDITION_SUMMARY: 168 h, read-out: pIC50 (converted)
Your answer is read as nM, so omit the unit and give the number.

Quick note, IC50 for CCc1nc2ccc(Cl)cn2c1C(=O)NCc1ccc(N2CCN(S(=O)(=O)C(F)(F)F)C(CC#N)=N2)cc1 landed at 7.94

What the record says about CCc1nc2nc3c(cn2c1C(=O)NCc1ccc(N2CCN(S(=O)(=O)C(F)(F)F)C(OC)=N2)c(F)c1)CCOC3 : IC50 is 3.98

Lab note: CCc1nc2ccc(Cl)cn2c1C(=O)NCc1ccc(N2CCN(S(=O)(=O)C(F)(F)F)C=N2)nc1 gave IC50 of 25.1

Entry under test: CCc1nc2ccc(Cl)cn2c1C(=O)NCc1ccc(N2CCN(S(=O)(=O)C(F)(F)F)C(CN(C)C)=N2)cc1 . Its IC50 was 6.76

get_value(item= CCc1nc2c(C)cc(C)cn2c1C(=O)NCc1cnc(N2CCN(S(=O)(=O)C(F)(F)F)C=N2)c(F)c1 , readout=IC50) returns 200

The recorded IC50 for entry CCc1nc2cc(Br)c(Cl)cn2c1C(=O)NCc1ccc(N2CCN(S(=O)(=O)C(F)(F)F)C=N2)c(F)c1 equals 28.2

// sample CCc1nc2n(ccc3ncnn32)c1C(=O)NCc1ccc(N2CCN(S(=O)(=O)C(F)(F)F)C=N2)c(F)c1 , its IC50 was 186

* * *

TEST_SUMMARY: in vitro
CONDITION_SUMMARY: mouse, microsomes
Would you kindly list microsomal CLint for each of these molecules?
Field: numeric (µL/min/mg). Do not append units.

Per the records, this molecule ( CCc1nc2ccc(C#N)cn2c1C(=O)NCc1ccc(N2CCN(S(=O)(=O)C(F)(F)F)C(OC)=N2)c(F)c1 [Compound 73] ) has microsomal CLint equal to 93

Memo: CCc1nc2ccc(Cl)cn2c1C(=O)NCc1ccc(N2CCN(S(C)(=O)=O)C=N2)cc1 [Compound 20] , reported microsomal CLint: 15.9

What the record says about CCc1nc2ccc(Cl)cn2c1C(=O)NCc1ccc(N2CCN(S(=O)(=O)C(F)(F)F)C(OC)=N2)cc1 [Compound 6] : microsomal CLint is 49
